Reported abundance fitness values for a set of variants
B1: POU domain, class 2, transcription factor 3, residues 186 to 260; numbered along this chain, Q9UKI9 (parent)
chain: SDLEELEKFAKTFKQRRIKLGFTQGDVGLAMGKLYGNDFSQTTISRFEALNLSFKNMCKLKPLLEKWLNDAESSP

variants of: B1; assay: abundance fitness (aPCA) (normalised: wild type 0, dead -1); higher = more abundant; growth selection in yeast, the domain comes from the species named; conditions: Homo sapiens
# output: bare number, no unit

Reference set, count: 3
L64T :: -0.462
L29D :: -0.045
L29A :: 0.024

input: Specify reported abundance fitness for the variant shown: G28A
output: -0.055

input: Specify reported abundance fitness for the variant shown: F47Y
output: -0.222

input: Specify reported abundance fitness for the variant shown: R46I
output: -0.745

input: Specify reported abundance fitness for the variant shown: E48K
output: -0.705

input: Specify reported abundance fitness for the variant shown: K66H
output: -0.104

input: Specify reported abundance fitness for the variant shown: K55W
output: -0.093

input: Specify reported abundance fitness for the variant shown: L68W
output: -0.43

Just for reference, the Human Domainome abundance scans (Beltran et al. 2025) is where these values come from.
